assay: Pharmacokinetics and oral bioavailability in Wistar rats; assay type: in vivo; details: male, Wistar, plasma; rat, single oral administration 5 mg/kg

compound_structure_string | AUC(0-inf)
O=C(NCc1cccnc1)c1csc(-c2cnn3cccnc23)n1 | 408 ng·h/mL

---

Assay: Pharmacokinetics and oral bioavailability in Wistar rats
Format: in vivo
Conditions: male, Wistar, plasma, iv; rat, single injection 1 mg/kg; read-out: Vss
Method: To prepare the standard series solution, a suitable amount of compound IA-3 was accurately weighed and placed in a 100 mL volumetric flask. The compound was dissolved in acetonitrile and diluted to the mark to produce a 25.0 μg/mL stock solution. […] Sample determination and data processing: the rat plasma samples were processed according to the “Preparation of plasma samples” procedure and analyzed under the conditions described above. […]

compound_structure_string | Vd
O=C(NCc1cccnc1)c1csc(-c2cnn3cccnc23)n1 | 1.08 L/kg
